Assay: AUC in beagle dog at 5 mg/kg, po
Assay type: ADME, organism-based, Canis lupus familiaris
Design: dose 5 mg/kg, route oral
Conditions: plasma
experimental readout: AUC (µM·h)
Field: numeric (µM·h). Do not append units.

CC(=O)N1N=C(c2cc(F)ccc2F)S[C@@]12c1ccccc1OC[C@H]2CCN = 1.4

With those in mind, consider the next molecule.
What AUC value was documented for this molecule, `CC(=O)N1N=C(c2cc(F)ccc2F)S[C@@]12c1cc(F)cc(F)c1OC[C@H]2CCN` ?
1.7

---

Biological target: Kinesin-like protein KIF11 (Homo sapiens)
Sequence (P52732 whole entry): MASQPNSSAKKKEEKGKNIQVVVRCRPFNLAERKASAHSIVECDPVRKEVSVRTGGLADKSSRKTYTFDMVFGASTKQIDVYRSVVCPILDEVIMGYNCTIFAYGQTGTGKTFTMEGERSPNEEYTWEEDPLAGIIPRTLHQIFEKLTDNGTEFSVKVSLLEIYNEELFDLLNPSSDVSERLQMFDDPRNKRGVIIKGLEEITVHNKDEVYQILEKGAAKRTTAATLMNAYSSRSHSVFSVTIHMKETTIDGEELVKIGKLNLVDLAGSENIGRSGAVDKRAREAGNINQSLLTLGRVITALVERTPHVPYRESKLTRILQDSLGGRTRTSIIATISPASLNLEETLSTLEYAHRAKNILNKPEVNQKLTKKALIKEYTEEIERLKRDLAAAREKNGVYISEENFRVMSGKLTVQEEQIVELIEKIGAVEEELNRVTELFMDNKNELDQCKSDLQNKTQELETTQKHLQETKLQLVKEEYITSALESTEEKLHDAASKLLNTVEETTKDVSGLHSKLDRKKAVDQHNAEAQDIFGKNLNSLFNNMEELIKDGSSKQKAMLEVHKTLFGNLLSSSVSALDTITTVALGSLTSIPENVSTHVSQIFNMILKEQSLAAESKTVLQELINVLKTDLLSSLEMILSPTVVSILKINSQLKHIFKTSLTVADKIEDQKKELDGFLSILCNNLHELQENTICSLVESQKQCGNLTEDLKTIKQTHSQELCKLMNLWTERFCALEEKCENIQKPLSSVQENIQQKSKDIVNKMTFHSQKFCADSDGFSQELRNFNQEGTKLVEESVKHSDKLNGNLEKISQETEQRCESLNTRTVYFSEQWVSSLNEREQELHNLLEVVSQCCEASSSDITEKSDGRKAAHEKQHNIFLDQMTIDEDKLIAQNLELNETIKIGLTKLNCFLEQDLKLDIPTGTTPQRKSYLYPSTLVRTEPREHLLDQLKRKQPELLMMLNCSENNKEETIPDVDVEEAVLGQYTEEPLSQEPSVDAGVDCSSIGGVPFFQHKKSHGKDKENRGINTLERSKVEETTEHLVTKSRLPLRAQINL
Experiment: Inhibition of KSP in human HCT116 cells assessed as phos-histone H3 level by immunofluorescent assay
Readings of EC50 for the listed molecules

Some molecules with recorded EC50:
CC(C)C(=O)N1N=C(c2cc(F)ccc2F)SC12CCOc1ccccc12 (stereo not drawn) = > 0.5 µM
CC(C)(C)C(=O)N1N=C(c2cc(F)ccc2F)SC12CCOc1ccccc12 (stereo not drawn) = > 1 µM

What EC50 value was documented for this molecule, NCC(=O)N1N=C(c2cc(F)ccc2F)SC12CCOc1ccccc12 (stereo not drawn) ?
> 1 µM
